# credit: PubChem BioAssay AID1159580

- Test summary: chemical genetic growth profiling, strain panel (AID 1159580);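 also: tested at 20 µM; growth read once vehicle control cultures reached saturation at 30 °C; 1 = growth at the plate median or of vehicle wells; lower values mean less growth of the strain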
- Condition context: S. cerevisiae deletion strains, growth OD, locus YMR129W
The campaign covered roughly 5,500 compounds. About 2,000 (36%) were called active. Another 18% or so got no clear call; they are omitted. Rule as the data show it: active = normalized growth mostly below about 0.91 (no sharp cut-off); inconclusive = no clear call, values can overlap the other calls; inactive = mostly above about 0.92. The list shows a part of the results.
Hi! Could you answer with just one of these? active, inactive

Name the outcome recorded for COc1cc2c(cc1O)CC1c3c(cc(O)c(OC)c3-2)CCN1C (configuration not stated) in the assay. inactive

Same for COc1cc(/C=C/C(=O)O)cc(OC)c1OC inactive

Same for COc1cc(/C=C/C(=O)O)ccc1O inactive

Same for COc1ccc2c(c1O)-c1c(OC)c(OC)cc3c1[C@H](C2)N(C)CC3 inactive

Same for COc1ccc(/C=C/C(=O)c2cc(O)ccc2O)cc1 active

Same for CN(C)CCCO[C@H]1[C@@H](C(O)CO)OC2OC(C)(C)O[C@@H]21 (some centres not stated) inactive

Same for C=CCN1CC[C@]23c4c5ccc(O)c4OC2C(=O)CC[C@@]3(O)[C@H]1C5 (some centres not stated) inactive

Same for CN1CCc2cccc3c2C1Cc1ccc(O)c(O)c1-3 (configuration not stated) inactive

Same for CCCCC(CC)CN=C(N)NC(N)=NCCCCCCN=C(N)NC(N)=NCC(CC)CCCC (configuration not stated) active

Same for COc1ccc(-c2cc(C(F)F)nn2-c2ccc(S(N)(=O)=O)cc2)cc1F inactive

Same for c1ccc2[nH]c(-c3cscn3)nc2c1 inactive

Same for COc1ccc(/C=C/C(=O)O)cc1OC inactive

----------
- Test summary: chemical genetic growth profiling, strain panel (AID 1159580)
- Condition context: S. cerevisiae deletion strains, growth OD, locus YLR113W, strain HOG1
Out of some 5,500 compounds screened, about 2,000 (36%) were called active. Another 18% or so got no clear call; they are omitted. Rule as the data show it: active = normalized growth mostly below about 0.91 (no sharp cut-off); inconclusive = no clear call, values can overlap the other calls; inactive = mostly above about 0.92. The list shows a part of the results.
Hi! Could you answer with just one of these? true (1) = active, false (0) = inactive

Name the outcome recorded for Oc1ccc(/C=C/c2cc(O)cc(O)c2)cc1 in the assay. false (0)

Same for COc1ccc2c(c1O)-c1c(OC)c(OC)cc3c1[C@H](C2)N(C)CC3 false (0)

Same for NC(=O)N/N=C\c1ccc([N+](=O)[O-])o1 false (0)

Same for Cc1nc(C(F)(F)F)c(C(=O)O/N=C(/N)c2ccc(Cl)cc2)s1 true (1)

Same for O=C1OCCN1/N=C\c1ccc([N+](=O)[O-])o1 false (0)

Same for CCOC(=O)C(C)(N)Cc1ccc(O)c(O)c1 (stereo unspecified) false (0)

----------
- Test summary: chemical genetic growth profiling, strain panel (AID 1159580);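 also: tested at 20 µM; growth read once vehicle control cultures reached saturation at 30 °C; 1 = growth at the plate median or of vehicle wells; lower values mean less growth of the strain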
- Condition context: S. cerevisiae deletion strains, growth OD, strain TSCII
Hit rate of the full screen: of about 5,500 compounds, about 2,000 (36%) were called active. About 18% were inconclusive and are not listed. Rule as the data show it: active = normalized growth mostly below about 0.91 (no sharp cut-off); inconclusive = no clear call, values can overlap the other calls; inactive = mostly above about 0.92. This is one part of the list.
Hi! Could you answer with just one of these? yes = active, no = inactive

Name the outcome recorded for CC12CC[C@@H](O)CC1=CC[C@@H]1C2CCC2(C)C(=O)CC[C@@H]12 (stereo partly specified) in the assay. no

Same for CC1(C)C/C(=N/Nc2ccc(C(F)(F)F)cc2)c2cc(C(C)(C)C)c(O)c(O)c2O1 no

Same for O=C(CCSc1cccs1)Nc1cccc(C(F)(F)F)c1 no

Same for O=C(CO/N=C\c1ccc(Cl)cc1Cl)NNC(=S)Nc1cc(Cl)ccc1Cl no

Same for O=C(Nc1cccc(C(F)(F)F)c1)Oc1ccc(F)cc1Cl no

Same for CC(=O)C(Sc1nc2ccccc2s1)C(C)=O no

Same for O=S(=O)(Nc1cc(C(F)(F)F)ccc1F)c1cc(C(F)(F)F)ccc1Cl no

Same for CSc1c(C#N)c(-c2ccc(Cl)cc2)nn1C(=O)c1ccccc1Cl no

Same for O=C(Nc1ccccn1)c1cc(-c2ccccc2)c(C(F)(F)F)s1 no

Same for N/C(=N/OC(=O)c1ccc(Cl)cc1)c1ccc(F)cc1F yes

Same for C/C(=N/OC(=O)Nc1ccc(Cl)cc1)c1ccc2c(c1)CCO2 no

----------
- Test summary: chemical genetic growth profiling, strain panel (AID 1159580);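 also: tested at 20 µM; growth read once vehicle control cultures reached saturation at 30 °C; 1 = growth at the plate median or of vehicle wells; lower values mean less growth of the strain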
- Condition context: S. cerevisiae deletion strains, growth OD, locus YLR039C, strain RIC1, hits give low values
The whole screen tested about 5,500 compounds, of which about 2,000 (36%) were called active. Not shown: some 18% with an inconclusive outcome. This is one part of the list.
Kindly supply the reported normalized growth values for the records listed here.
Response field accepts a number only; no unit should be typed.

Given Cc1ccc(C(C)C)cc2c(C)ccc1-2 , state its recorded normalized growth. 0.92

Same for CN(C)c1ccc(/C=N\NC(=O)CCc2ccc(O)cc2)c(Cl)c1 0.951

Same for COC(=O)[C@H]1[C@H]2C[C@@H]3c4[nH]c5cc(OC)ccc5c4CCN3C[C@H]2C[C@@H](OC(=O)c2cc(OC)c(OC)c(OC)c2)[C@@H]1OC 1.05

Same for Nc1ccc(S(=O)(=O)Nc2nccs2)cc1 1.04

Same for COc1ccccc1-c1cc(=O)c2cccc(OC)c2o1 0.84

----------
- Test summary: chemical genetic growth profiling, strain panel (AID 1159580);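 also: tested at 20 µM; growth read once vehicle control cultures reached saturation at 30 °C; 1 = growth at the plate median or of vehicle wells; lower values mean less growth of the strain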
- Condition context: S. cerevisiae deletion strains, growth OD, locus YNL307C, strain MCK1, hits give low values
The campaign covered roughly 5,500 compounds. About 2,000 (36%) were called active. Not shown: some 18% with an inconclusive outcome. The list shows a part of the results.
Kindly supply the reported normalized growth values for the records listed here.
Response field accepts a number only; no unit should be typed.

Given NC(=O)c1cnccn1 , state its recorded normalized growth. 1.01

Same for O=C(O)c1cc(O)c(O)c(O)c1 1.03

Same for CN(C)CCCO[C@H]1[C@@H](C(O)CO)OC2OC(C)(C)O[C@@H]21 (some centres not stated) 0.871

Same for C#C[C@]1(O)CCC2C3CCc4cc(O)ccc4C3CC[C@@]21C (some centres not stated) 0.813

Same for CC[C@@H](C(=O)O)[C@@H]1O[C@@H]([C@@H](C)[C@H](O)[C@H](C)C(=O)[C@H](CC)[C@H]2O[C@]3(C=C[C@@H](O)[C@]4(CC[C@@](C)(C5CC[C@](O)(CC)[C@H](C)O5)O4)O3)[C@H](C)C[C@@H]2C)[C@@H](C)C[C@H]1C (some centres not stated) 0.229

Same for C[C@](N)(Cc1ccc(O)c(O)c1)C(=O)O 0.996

Same for S=c1[nH]c2ccccc2s1 0.97

Same for COc1ccc(/C=C/c2cc(O)cc(O)c2)cc1 0.857

Same for NCCCCN=C(N)N 0.973

Same for COc1cc2c(cc1O)CC1c3c(cc(O)c(OC)c3-2)CCN1C (configuration not stated) 0.994

Same for COc1ccc2c(c1O)-c1c(OC)c(OC)cc3c1[C@H](C2)N(C)CC3 1.02

Same for O=c1cccc2n1C[C@H]1CNCC2C1 0.983

Same for CCn1cc(C(=O)O)c(=O)c2cnc(N3CCNCC3)nc21 0.991

Same for CC[C@]12CCCN3CCc4c(n(c5ccccc45)[C@](O)(C(=O)OC)C1)[C@@H]32 0.981

Same for CC[C@@H](C(=O)[C@@H](C)[C@@H](O)[C@H](C)[C@@H]1O[C@@H]([C@@H](CC)C(=O)O)CC[C@@H]1C)[C@H]1OC2(C=C[C@@H](O)[C@]3(CC[C@@](C)([C@H]4CC[C@](O)(CC)[C@H](C)O4)O3)O2)[C@H](C)C[C@@H]1C (some centres not stated) 0.862

Same for Nc1nccs1 0.988

Same for COP(=S)(OC)Oc1ccc(SC)c(C)c1 0.979

Same for O=C(O)c1cc(=O)c(O)c2c(O)c(O)ccc2c1 1.04

Same for O=C(O)CCCCC1SCC2NC(=O)NC21 (configuration not stated) 0.997

Same for COc1ccc(/C=C/c2cc(O)cc(O[C@@H]3O[C@H](CO)[C@@H](O)[C@H](O)[C@H]3O)c2)cc1O 1.03

Same for NC(=O)c1cc[n+](CC2=C(C(=O)O)N3C(=O)C(NC(=O)C(c4ccccc4)S(=O)(=O)[O-])C3SC2)cc1 (configuration not stated) 0.987

Same for CO[C@@H]1[C@@H](O[C@@H]2O[C@H](C)[C@@H](O[C@H]3C[C@@](C)(O)[C@H](O)[C@H](C)O3)[C@H](N(C)C)[C@H]2O)[C@@H](CC=O)C[C@@H](C)[C@@H](O[C@H]2CC[C@H](N(C)C)[C@@H](C)O2)/C=C/C=C/C[C@H](C)OC(=O)C[C@H]1O 0.993

Same for OC/C=C/c1ccc(O)c(O)c1 0.953

Same for COc1ccccc1N1CCNCC1 1.05

Same for Nc1nc2ncc(CNc3ccc(C(=O)N[C@@H](CCC(=O)O)C(=O)O)cc3)nc2c(=O)[nH]1 0.98

Same for CCOC(=O)CCCCCCCCCCCCC1C=CCC1 (configuration not stated) 0.0657

Same for Cc1cccc(CN2CCN(C(c3ccccc3)c3ccc(Cl)cc3)CC2)c1 (configuration not stated) 0.96

Same for CC(=O)C1=C(O)C2C3c4c[nH]c5cccc(c45)CC3C(C)(C)N2C1=O (configuration not stated) 1.02

Same for CC(Cc1ccc(O)c(O)c1)(NN)C(=O)O (configuration not stated) 1.02

Same for O=C(O)CCCCCCCCCCCCC1C=CCC1 (configuration not stated) 0.585

Same for CCCCC(CC)CN=C(N)NC(N)=NCCCCCCN=C(N)NC(N)=NCC(CC)CCCC (configuration not stated) 0.0671

Same for Oc1ccc(/C=C/c2cc(O)cc(O)c2)cc1 0.99

Same for CC1(C)C2CC(=O)O[C@@]3(C)C4=CC(=O)O[C@@H](c5ccoc5)[C@]4(C)CCC3[C@@]2(C)C=C[C@H]1O (some centres not stated) 0.991

Same for NCc1ccc(S(N)(=O)=O)cc1 0.992

Same for CN1CCc2cccc3c2C1Cc1ccc(O)c(O)c1-3 (configuration not stated) 0.991

Same for O=C(O)CCC(=O)c1ccc(-c2ccccc2)cc1 0.963

Same for CCCSP(=O)(OCC)SCCC 0.979

Same for O=C(/C=C/c1ccc(O)c(O)c1)O[C@@H]1C[C@](O)(C(=O)O)C[C@@H](O)[C@H]1O 1.02

Same for CCN(CC)CCOC(=O)C(Cc1cccc2ccccc12)CC1CCCO1 (configuration not stated) 1.02

Same for c1ccc2[nH]c(-c3cscn3)nc2c1 1

Same for CN(Cc1cnc2nc(N)nc(N)c2n1)c1ccc(C(=O)NC(CCC(=O)O)C(=O)O)cc1 (configuration not stated) 1.01

Same for CCOC(=O)C1=C[C@]2(CC)CCCN3CCc4c(n1c1ccccc41)[C@@H]32 0.879
